Target or system: Solute carrier organic anion transporter family member 1A2 (Homo sapiens, UniProt P46721)
Sequence (P46721 whole entry): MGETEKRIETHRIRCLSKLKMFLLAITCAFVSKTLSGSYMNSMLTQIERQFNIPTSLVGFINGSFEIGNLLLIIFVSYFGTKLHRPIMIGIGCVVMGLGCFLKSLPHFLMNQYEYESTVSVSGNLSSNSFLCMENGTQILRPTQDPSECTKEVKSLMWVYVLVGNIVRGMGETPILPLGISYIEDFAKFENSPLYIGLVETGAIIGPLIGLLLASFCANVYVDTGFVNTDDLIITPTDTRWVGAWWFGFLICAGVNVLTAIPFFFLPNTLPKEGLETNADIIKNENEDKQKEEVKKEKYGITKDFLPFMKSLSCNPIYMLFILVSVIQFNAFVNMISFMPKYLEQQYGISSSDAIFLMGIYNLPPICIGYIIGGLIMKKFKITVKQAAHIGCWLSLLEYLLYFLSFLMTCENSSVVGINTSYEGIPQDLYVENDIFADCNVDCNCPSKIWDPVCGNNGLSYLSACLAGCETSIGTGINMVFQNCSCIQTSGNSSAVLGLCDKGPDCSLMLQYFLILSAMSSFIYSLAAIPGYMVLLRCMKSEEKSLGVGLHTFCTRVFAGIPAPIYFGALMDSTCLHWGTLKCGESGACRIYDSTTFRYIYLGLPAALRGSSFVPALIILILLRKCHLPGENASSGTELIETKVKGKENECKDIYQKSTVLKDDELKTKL
Test description: TP_TRANSPORTER: inhibition of Fexofenadine uptake (Fexofenadine: 2 uM, PSC-833: 100 uM) in Xenopus laevis oocytes
Assay type: functional, cell-based, Oocyte
Assay conditions: probe Fexofenadine
Measure: inhibition at 100 µM (%)
Numbers only, in %.

Qu. Determine its reported inhibition at 100 µM: C/C=C/C[C@@H](C)C(=O)[C@H]1C(=O)N[C@@H](C(C)C)C(=O)N(C)CC(=O)N(C)[C@@H](CC(C)C)C(=O)N[C@@H](C(C)C)C(=O)N(C)[C@@H](CC(C)C)C(=O)N[C@@H](C)C(=O)N[C@H](C)C(=O)N(C)[C@@H](CC(C)C)C(=O)N(C)[C@@H](CC(C)C)C(=O)N(C)[C@@H](C(C)C)C(=O)N1C
Ans. 85

---

Target or system: Solute carrier organic anion transporter family member 1A2 (Homo sapiens, UniProt P46721)
Test description: TP_TRANSPORTER: inhibition of Fexofenadine uptake (Fexofenadine: 2 uM, Lovastatin: 100 uM) in Xenopus laevis oocytes
Assay type: functional, cell-based, Oocyte
Assay conditions: probe Fexofenadine
Measure: inhibition at 100 µM (%)
One number for each entry, in %.

Qu. Could you please provide reported inhibition at 100 µM for CC[C@H](C)C(=O)O[C@H]1C[C@@H](C)C=C2C=C[C@H](C)[C@H](CC[C@@H]3C[C@@H](O)CC(=O)O3)[C@H]21 ? Thanks!
Ans. 95

---

Target or system: Solute carrier organic anion transporter family member 1A2 (Homo sapiens, UniProt P46721)
Test description: TP_TRANSPORTER: inhibition of Fexofenadine uptake (Fexofenadine: 2 uM, Quinidine: 100 uM) in Xenopus laevis oocytes
Type: functional, cell-based, Oocyte
Assay conditions: probe Fexofenadine, read-out: Activity
Measure: inhibition at 100 µM (%)
Give bare numbers, in %.

Qu. In one line, give reported inhibition at 100 µM of the entry C=C[C@H]1C[N@@]2CC[C@H]1C[C@@H]2[C@@H](O)c1ccnc2ccc(OC)cc12 [QUINIDINE] .
Ans. 91
